# Measurement notes: Microsomal stability, human liver microsomes
# Assay type: in vitro ADME
# Assay conditions: percentage of compound remaining after 60 minutes, 3 μM compound
Quantity: Microsomal Stability Human (%)

molecule_smiles=N#CCc1ccc(NCc2ccc(-c3cccc4nc(NC(=O)C5CC5)nn34)cc2)cc1 quantity="Microsomal Stability Human (%)" reported="* (* 0-25)"
molecule_smiles=O=C(Nc1nc2cccc(-c3ccc(C(=O)N4CCCN(Cc5ccccc5)CC4)cc3)n2n1)C1CC1 quantity="Microsomal Stability Human (%)" reported="* (* 0-25)"
molecule_smiles=O=C(Nc1nc2cccc(-c3ccc(CNc4ncccn4)cc3)n2n1)C1CC1 quantity="Microsomal Stability Human (%)" reported="*** (*** 51-75)"
molecule_smiles=O=C(Nc1nc2cccc(-c3ccc(CNc4ccon4)cc3)n2n1)C1CC1 quantity="Microsomal Stability Human (%)" reported="*** (*** 51-75)"
molecule_smiles=N#CCc1ccccc1NCc1ccc(-c2cccc3nc(NC(=O)C4CC4)nn23)cc1 quantity="Microsomal Stability Human (%)" reported="* (* 0-25)"
molecule_smiles=CC(=O)N(Cc1ccccn1)c1ccc(-c2cccc3nc(NC(=O)C4CC4)nn23)cc1 quantity="Microsomal Stability Human (%)" reported="*** (*** 51-75)"
molecule_smiles=O=C(Nc1nc2cccc(-c3ccc4c(ccn4C(=O)CCc4ccccc4)c3)n2n1)C1CC1 quantity="Microsomal Stability Human (%)" reported="* (* 0-25)"
molecule_smiles=O=C(Nc1nc2cccc(-c3ccc(OCc4ccc(-n5cccn5)cc4)cc3)n2n1)C1CC1 quantity="Microsomal Stability Human (%)" reported="*** (*** 51-75)"

---

# System under test: Recombinant human JAK1 catalytic domain (Homo sapiens (Human), UniProt P23458)
# Sequence (P23458 850-1154): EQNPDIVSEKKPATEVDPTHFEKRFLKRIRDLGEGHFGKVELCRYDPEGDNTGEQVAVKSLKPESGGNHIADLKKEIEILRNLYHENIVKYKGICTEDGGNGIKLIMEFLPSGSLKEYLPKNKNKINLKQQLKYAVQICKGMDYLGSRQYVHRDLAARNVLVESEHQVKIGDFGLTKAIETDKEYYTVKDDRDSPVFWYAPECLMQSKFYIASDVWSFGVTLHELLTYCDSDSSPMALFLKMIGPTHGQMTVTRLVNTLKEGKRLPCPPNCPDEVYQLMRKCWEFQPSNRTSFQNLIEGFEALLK
# Measurement notes: JAK1 inhibition assay
# Assay type: biochemical
# Assay conditions: semi-quantitative score
# Protocol: Plates were washed 6 times with 300 μL per well of a 75 mM phosphoric acid solution and the bottom of the plates was sealed. 40 μL/well of Microscint-20 was added, the top of the plates was sealed and readout was performed using the Topcount (Perkin Elmer). Kinase activity was calculated by subtracting counts per minute (cpm) obtained in the presence of a positive control inhibitor (10 μM staurosporine) from cpm obtained in the presence of vehicle. […]
Quantity: IC50

compound="N#CCc1ccc(NCc2ccc(-c3cccc4nc(NC(=O)C5CC5)nn34)cc2)cc1 [Compound 224]" reported="< 100 nM"
compound="O=C(NCCCc1ccccc1)c1ccc(-c2cccc3nc(NC(=O)C4CC4)nn23)cc1 [Compound 114]" reported="< 100 nM"
compound="O=C(Nc1nc2cccc(-c3ccc(-c4cccs4)cc3)n2n1)C1CC1 [Compound 20]" reported="101 to 500 nM"
compound="O=C(Nc1nc2cccc(-c3ccc(OC4CCCC4)cc3)n2n1)C1CC1 [Compound 40]" reported="< 100 nM"
compound="O=C(Nc1nc2cccc(-c3ccc(CN4CC[C@H](O)C4)cc3)n2n1)C1CC1 [Compound 305]" reported="101 to 500 nM"
compound="CN(Cc1ccc(-c2cncnc2)cc1)Cc1ccc(-c2cccc3nc(NC(=O)C4CC4)nn23)cc1 [Compound 161]" reported="501 to 1000 nM"
compound="O=C(Nc1nc2cccc(-c3ccc(NS(=O)(=O)c4ccccc4)nc3)n2n1)C1CC1 [Compound 180]" reported="101 to 500 nM"
compound="CN1CCC(NC(=O)c2ccc(-c3cccc4nc(NC(=O)C5CC5)nn34)cc2)CC1 [Compound 32]" reported="501 to 1000 nM"

---

# Measurement notes: Microsomal stability, human liver microsomes
# Type: in vitro ADME
# Assay conditions: percentage of compound remaining after 60 minutes, 3 μM compound
Quantity: Microsomal Stability Human (%)

compound=O=C(Nc1nc2cccc(-c3ccc(OCCOc4ccc(F)cc4)cc3)n2n1)C1CC1 reported="*** (*** 51-75)"
compound=O=C(Nc1nc2cccc(-c3ccc(C(=O)N4CCCCC4)cc3F)n2n1)C1CC1 reported="*** (*** 51-75)"
compound=O=C(Nc1ccc(N2CCOCC2)nc1)c1ccc(-c2cccc3nc(NC(=O)C4CC4)nn23)cc1 reported="* (* 0-25)"
compound=O=C(Nc1nc2cccc(-c3ccc(OCc4ccc(-c5cn[nH]c5)nc4)cc3)n2n1)C1CC1 reported="*** (*** 51-75)"
compound=O=C(NC1CC1)c1ccc(-c2cccc3nc(NC(=O)C4CC4)nn23)cc1 reported="**** (**** 76-100)"
compound=O=C(Nc1nc2cccc(-c3ccc(C(=O)N4CCCC4)cc3)n2n1)C1CC1 reported="**** (**** 76-100)"
compound=CN(Cc1ccccc1)c1ccc(-c2cccc3nc(NC(=O)C4CC4)nn23)cc1 reported="* (* 0-25)"
compound=O=C(COc1ccc(-c2cccc3nc(NC(=O)C4CC4)nn23)cc1)Nc1cccc(F)c1 reported="*** (*** 51-75)"
compound=O=C(Nc1nc2cccc(-c3ccc(CCc4ccccn4)cc3)n2n1)C1CC1 reported="* (* 0-25)"
compound=NC(=O)c1ccc(COc2ccc(-c3cccc4nc(NC(=O)C5CC5)nn34)cc2)cn1 reported="**** (**** 76-100)"
compound=COC(=O)c1ccc(COc2ccc(-c3cccc4nc(NC(=O)C5CC5)nn34)cc2)nc1 reported="* (* 0-25)"
compound="CC1CC(C)CN(C(=O)c2ccc(-c3cccc4nc(NC(=O)C5CC5)nn34)cc2)C1 (stereo not shown)" reported="*** (*** 51-75)"
compound=O=C(Nc1nc2cccc(-c3ccc(CN4CCS(=O)(=O)CC4)cc3)n2n1)C1CC1 reported="**** (**** 76-100)"
compound="O=C(Nc1nc2cccc(-c3ccc(CN4CCCC(F)C4)cc3)n2n1)C1CC1 (stereo not shown)" reported="*** (*** 51-75)"
compound=COc1ccc(NCc2ccc(-c3cccc4nc(NC(=O)C5CC5)nn34)cc2)cn1 reported="* (* 0-25)"
compound=O=C(N[C@H]1CCN(Cc2ccccc2)C1)c1ccc(-c2cccc3nc(NC(=O)C4CC4)nn23)cc1 reported="* (* 0-25)"
compound=O=C(NCCc1ccc(C(F)(F)F)cc1)c1ccc(-c2cccc3nc(NC(=O)C4CC4)nn23)cc1 reported="* (* 0-25)"
compound=Cc1noc(C)c1CCOc1ccc(-c2cccc3nc(NC(=O)C4CC4)nn23)cc1 reported="* (* 0-25)"

---

# Measurement notes: Microsomal stability, rat liver microsomes
# Type: in vitro ADME
# Assay conditions: percentage of compound remaining after 60 minutes, 3 μM compound
Quantity: Microsomal Stability Rat (%)

compound=O=C(Nc1nc2cccc(-c3ccc(OCc4ccccc4)nc3)n2n1)C1CC1 reported="** (** 26-50)"
compound=O=C(Nc1ccc(N2CCOCC2)nc1)c1ccc(-c2cccc3nc(NC(=O)C4CC4)nn23)cc1 reported="* (* 0-25)"
compound=O=C(NCCc1ccccc1)c1ccc(-c2cccc3nc(NC(=O)C4CC4)nn23)cc1 reported="* (* 0-25)"
compound=CC(=O)Nc1nc2cccc(-c3ccc(OCc4ccccc4)cc3)n2n1 reported="** (** 26-50)"
compound=CC1(C)CCCN(C(=O)c2ccc(-c3cccc4nc(NC(=O)C5CC5)nn34)cc2)C1 reported="* (* 0-25)"
compound=O=C(Cc1ccc(-c2cccc3nc(NC(=O)C4CC4)nn23)cc1)Nc1cccnc1 reported="**** (**** 76-100)"
compound=O=C(NCCc1cccnc1)c1ccc(-c2cccc3nc(NC(=O)C4CC4)nn23)cc1 reported="* (* 0-25)"
compound=CC(=O)N(Cc1ccccn1)c1ccc(-c2cccc3nc(NC(=O)C4CC4)nn23)cc1 reported="**** (**** 76-100)"
compound=O=C(Nc1cccnc1)c1ccc(-c2cccc3nc(NC(=O)C4CC4)nn23)cc1 reported="*** (*** 51-75)"
compound=Cn1ccc(COc2ccc(-c3cccc4nc(NC(=O)C5CC5)nn34)cc2)n1 reported="*** (*** 51-75)"
compound=O=C(Nc1nc2cccc(-c3ccc(OCCOc4ccc(F)cc4)cc3)n2n1)C1CC1 reported="** (** 26-50)"
compound=CN(CCc1ccccc1)C(=O)c1ccc(-c2cccc3nc(NC(=O)C4CC4)nn23)cc1 reported="* (* 0-25)"
compound=O=C(Nc1nc2cccc(-c3ccc(NS(=O)(=O)c4ccccc4F)cc3)n2n1)C1CC1 reported="*** (*** 51-75)"
compound=N#CCc1ccc(NCc2ccc(-c3cccc4nc(NC(=O)C5CC5)nn34)cc2)cc1 reported="* (* 0-25)"
compound=O=C(NCCc1ccc(C(F)(F)F)cc1)c1ccc(-c2cccc3nc(NC(=O)C4CC4)nn23)cc1 reported="** (** 26-50)"
compound=O=C(Cc1ccccc1)Nc1ccc(-c2cccc3nc(NC(=O)C4CC4)nn23)cc1 reported="** (** 26-50)"
compound=NC(=O)c1ccccc1NCc1ccc(-c2cccc3nc(NC(=O)C4CC4)nn23)cc1 reported="** (** 26-50)"
compound=CC(=O)Nc1ccc(COc2ccc(-c3cccc4nc(NC(=O)C5CC5)nn34)cc2)cc1 reported="* (* 0-25)"
compound=O=C(Nc1nc2cccc(-c3ccc(NCCc4ccccc4)nc3)n2n1)C1CC1 reported="* (* 0-25)"
compound=O=C(Nc1nc2cccc(-c3ccc(NCc4cccnc4)cc3)n2n1)C1CC1 reported="* (* 0-25)"
compound=O=C(Nc1nc2cccc(-c3ccc(S(=O)(=O)NC4CC4)cc3)n2n1)C1CC1 reported="**** (**** 76-100)"
compound=O=C(Nc1nc2cccc(-c3ccc(NS(=O)(=O)Cc4ccccc4)cc3)n2n1)C1CC1 reported="** (** 26-50)"
compound="CC1CC(C)CN(C(=O)c2ccc(-c3cccc4nc(NC(=O)C5CC5)nn34)cc2)C1 (stereo not shown)" reported="** (** 26-50)"
compound=O=C(Nc1nc2cccc(-c3ccc(CN4CCN(CC(F)(F)F)CC4)cc3)n2n1)C1CC1 reported="**** (**** 76-100)"
compound=Cc1cc(COc2ccc(-c3cccc4nc(NC(=O)C5CC5)nn34)cc2)nn1C reported="* (* 0-25)"
compound=CC(=O)N(Cc1ccc(C#N)nc1)c1ccc(-c2cccc3nc(NC(=O)C4CC4)nn23)cc1 reported="**** (**** 76-100)"
compound=O=C(Nc1nc2cccc(-c3ccc(C(=O)N4CCC(F)CC4)cc3)n2n1)C1CC1 reported="**** (**** 76-100)"
compound=N#Cc1ccc(COc2ccc(-c3cccc4nc(NC(=O)C5CC5)nn34)cc2)cn1 reported="**** (**** 76-100)"

Reference source for all entries: patent US10206907B2
